- System: Plasmodium falciparum Sir2 (PF13_0152, Sir2A)
- protocol: pfSir2 binders on small-molecule microarrays, primary screen, biochemical, small-molecule microarray, 635 nm fluorescence (AID 1098);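 also: score merges spot fluorescence intensity with its signal-to-noise ratio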
- test.parameters: small-molecule microarray binding, fluorescence 635 nm; higher = more signal
readout.type: composite z-score

>  <compound>
CC(C)=CCCC(C)=CCON=C1C[C@@H](O)[C@@H](O)[C@@H]2[C@@H]3C(=O)N([C@@H](C)c4ccccc4)C(=O)[C@@H]3CC[C@H]12

>  <readout.type>
composite z-score

>  <value.reported>
0.948

$$$$
>  <compound>
CCOC(=O)[C@H](CC(C)C)NC(=O)CCC1CC(OC(=O)NCc2cccc3ccccc23)CC2(CCCC(COC(=O)NCc3ccccc3)O2)O1 (stereo not given in full)

>  <readout.type>
composite z-score

>  <value.reported>
0.929

$$$$
>  <compound>
CCOC(=O)CCN1C(=O)[C@H]2[C@H]3[C@H](O)[C@H](O)CC(=NNC(=O)OCC)[C@@H]3CC[C@H]2C1=O

>  <readout.type>
composite z-score

>  <value.reported>
0.238

$$$$
>  <compound>
C[C@@H]1CC[C@@H](C(=O)O)N[C@H]1c1ccc(-c2ccco2)cc1

>  <readout.type>
composite z-score

>  <value.reported>
1.04

$$$$
>  <compound>
C=C(C)C(=O)OC[C@@H]1CN2[C@@H](CC[C@@H](C)[C@@H]2c2ccc(Br)cc2)C(=O)O1

>  <readout.type>
composite z-score

>  <value.reported>
0.913

$$$$
>  <compound>
CCCNC(=O)OC[C@H]1O[C@H](CCON=C(C)CCC(=O)OC[C@H]2O[C@H](C#Cc3ccccc3)C=C[C@@H]2Oc2ccc(C)cc2)C=C[C@@H]1Oc1ccc(OC)cc1

>  <readout.type>
composite z-score

>  <value.reported>
0.352

$$$$
>  <compound>
COc1ccc(COC(=O)NN=C2C[C@@H](O)[C@@H](O)[C@@H]3[C@@H]4C(=O)N(C(C)(C)C)C(=O)[C@@H]4CC[C@H]23)cc1

>  <readout.type>
composite z-score

>  <value.reported>
0.871

$$$$
>  <compound>
CCN1C(=O)[C@H]2[C@H]3[C@H](O)[C@H](O)CC(=NNC(=O)OCc4ccc(OC)cc4)[C@H]3CC[C@H]2C1=O

>  <readout.type>
composite z-score

>  <value.reported>
0.182

$$$$
>  <compound>
CO[C@H]1COC(=O)[C@H](C)NC(=O)CC=C[C@@H](C)[C@H](OC)COC(=O)CC=C[C@@H]1C

>  <readout.type>
composite z-score

>  <value.reported>
0.523

$$$$
>  <compound>
CC(C)CON=C1C[C@@H](O)[C@@H](O)[C@@H]2[C@@H]3C(=O)N(c4cccc(Oc5ccccc5)c4)C(=O)[C@@H]3CC[C@H]12

>  <readout.type>
composite z-score

>  <value.reported>
0.0512

$$$$
>  <compound>
CO[C@H]1COC(=O)CC=C[C@@H](C)COC(=O)[C@@H](OCc2ccccc2)C=C[C@@H]1C

>  <readout.type>
composite z-score

>  <value.reported>
0.661

$$$$
>  <compound>
Cc1ccc(S(=O)(=O)N[C@H]2COC(=O)[C@@H](C)COC(=O)[C@H](C)NC(=O)CC=C[C@H]2C)cc1

>  <readout.type>
composite z-score

>  <value.reported>
0.163

$$$$
>  <compound>
Cc1cc2c(nc1C)CCCN2CC(C)ON=C[C@@H](C)[C@H](OCc1ccccc1)C(C)C (stereo not given in full)

>  <readout.type>
composite z-score

>  <value.reported>
-0.146

$$$$
>  <compound>
CCOC(=O)NN=C1C[C@@H](O)[C@@H](O)[C@@H]2[C@@H]3C(=O)N(Cc4ccc5c(c4)OCO5)C(=O)[C@@H]3CC[C@@H]12

>  <readout.type>
composite z-score

>  <value.reported>
0.0867

$$$$
>  <compound>
CC(C)=NOC[C@@H](O)COCc1ccco1

>  <readout.type>
composite z-score

>  <value.reported>
1.21

$$$$

* * *

- protocol: MM1S cell viability effects, profiling panel, calcein-AM fluorescence, 48 h, basal (AID 1165);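 also: viability of MM1S multiple myeloma cells under basal unstimulated conditions; test concentration not given here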
- test.parameters: higher = more signal

>  <structure.smiles>
CC(C)=NO[C@@H](C)c1cc(-c2c(C)cc(C)cc2C)no1

>  <z-score>
-0.309

$$$$
>  <structure.smiles>
CC(=O)OC[C@H]1O[C@H](C#CC(C)(C)C)C=C[C@@H]1OC(C)=O

>  <z-score>
-3.02

$$$$
>  <structure.smiles>
CC(C)=CCCC(C)=CCON=C1C[C@@H](O)[C@@H](O)[C@@H]2[C@@H]3C(=O)N([C@@H](C)c4ccccc4)C(=O)[C@@H]3CC[C@H]12

>  <z-score>
-2.88

$$$$
>  <structure.smiles>
CC(C)C(=O)N[C@@H]1CCCN1C(=O)C=Cc1ccccc1

>  <z-score>
0.391

$$$$
>  <structure.smiles>
COC(=O)C1=C(C)N(Cc2ccccc2)C2=C3C(=O)CCC[C@@H]3[C@@](O)(C(=O)OC)C(=O)N2[C@@H]1c1ccccc1

>  <z-score>
-2.99

$$$$
>  <structure.smiles>
CCN1C(=O)[C@H]2[C@H]3[C@H](O)[C@H](O)CC(=NNC(=O)OCc4ccc(OC)cc4)[C@H]3CC[C@H]2C1=O

>  <z-score>
0.436

$$$$
>  <structure.smiles>
CCN1C(=O)[C@H]2[C@H]3[C@H](O)[C@H](O)CC(=NOC)[C@@H]3CC[C@H]2C1=O

>  <z-score>
-0.106

$$$$
>  <structure.smiles>
C[C@@H](c1ccccc1)N1C(=O)[C@H]2[C@H]3[C@H](O)[C@H](O)CC(=O)[C@@H]3CC[C@H]2C1=O

>  <z-score>
0.288

$$$$
>  <structure.smiles>
CC(C)CCN1CCc2nc(-c3ccccc3)c3c(c2C1)CO[C@@H](C)C3

>  <z-score>
-1.18

$$$$

* * *

This section presents compounds with their documented composite z-score values.
- experimental.target: Fibroblast growth factor 10 (Homo sapiens)
- protocol: FGF10 binders on small-molecule microarrays, primary screen, biochemical, small-molecule microarray, 635 nm fluorescence (AID 1102)
- test.parameters: FGF10 binding, fluorescence 635 nm, higher = more signal

>  <compound>
CCOC(=O)[C@H](CC(C)C)NC(=O)CCC1CC(OC(=O)NCc2cccc3ccccc23)CC2(CCCC(COC(=O)NCc3ccccc3)O2)O1 (some centres undefined)

>  <composite z-score>
-0.242

$$$$
>  <compound>
COc1ccc(COC(=O)NN=C2C[C@@H](O)[C@@H](O)[C@@H]3[C@@H]4C(=O)N(C(C)(C)C)C(=O)[C@@H]4CC[C@H]23)cc1

>  <composite z-score>
0.589

$$$$
>  <compound>
CCN1C(=O)[C@H]2[C@H]3[C@H](O)[C@H](O)CC(=NNC(=O)OCc4ccc(OC)cc4)[C@H]3CC[C@H]2C1=O

>  <composite z-score>
0.178

$$$$
>  <compound>
C[C@@H]1CC[C@@H](C(=O)O)N[C@H]1c1ccc(-c2ccco2)cc1

>  <composite z-score>
0.614

$$$$

* * *

- experimental.target: E3 ubiquitin-protein ligase XIAP (Homo sapiens) (UniProt P98170)
- Sequence (P98170 whole entry, looked up): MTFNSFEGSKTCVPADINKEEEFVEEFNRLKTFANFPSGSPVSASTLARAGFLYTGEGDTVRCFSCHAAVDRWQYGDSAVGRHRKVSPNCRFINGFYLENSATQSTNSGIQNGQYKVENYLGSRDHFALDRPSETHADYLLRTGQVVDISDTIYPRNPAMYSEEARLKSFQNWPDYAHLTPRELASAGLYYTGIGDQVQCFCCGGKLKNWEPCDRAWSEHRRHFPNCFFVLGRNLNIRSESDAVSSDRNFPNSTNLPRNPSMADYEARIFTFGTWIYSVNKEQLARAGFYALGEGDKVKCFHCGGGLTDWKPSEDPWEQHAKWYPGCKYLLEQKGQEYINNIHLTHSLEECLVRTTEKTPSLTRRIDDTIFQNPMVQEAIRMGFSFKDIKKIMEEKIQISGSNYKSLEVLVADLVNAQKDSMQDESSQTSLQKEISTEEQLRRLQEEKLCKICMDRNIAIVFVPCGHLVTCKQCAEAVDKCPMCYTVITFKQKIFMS
- protocol: XIAP binders, primary screen, biophysical, small-molecule microarray, fluorescence 635 nm (AID 1181);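 also: score merges 667 nm emission and signal to noise over triplicate slides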
- test.parameters: small-molecule microarray binding, higher = more signal

>  <compound>
COC(=O)[C@H](C)NC(=O)CCC1CC(OC(=O)NCCc2ccc(F)cc2)CC2(CCCC(COC(=O)NCCCN3CCCC3=O)O2)O1 (stereo partly drawn)

>  <composite z-score>
-0.283

$$$$
>  <compound>
CC(C)CCN1CCc2nc(-c3ccccc3)c3c(c2C1)CO[C@@H](C)C3

>  <composite z-score>
0.201

$$$$
>  <compound>
Cc1cc2c(nc1C)CCCN2CC(C)ON=C[C@@H](C)[C@H](OCc1ccccc1)C(C)C (stereo partly drawn)

>  <composite z-score>
0.0546

$$$$
>  <compound>
Cc1ccc(S(=O)(=O)N[C@H]2COC(=O)[C@@H](C)COC(=O)[C@H](C)NC(=O)CC=C[C@H]2C)cc1

>  <composite z-score>
-0.43

$$$$
>  <compound>
CCOC(=O)[C@H](CC(C)C)NC(=O)CCC1CC(OC(=O)NCc2cccc3ccccc23)CC2(CCCC(COC(=O)NCc3ccccc3)O2)O1 (stereo partly drawn)

>  <composite z-score>
-0.125

$$$$
>  <compound>
CC(C)C(=O)N[C@@H]1CCCN1C(=O)C=Cc1ccccc1

>  <composite z-score>
-0.113

$$$$
>  <compound>
CCOC(=O)CCN1C(=O)[C@H]2[C@H]3[C@H](O)[C@H](O)CC(=NNC(=O)OCC)[C@@H]3CC[C@H]2C1=O

>  <composite z-score>
0.116

$$$$
>  <compound>
C=C(C)C(=O)OC[C@@H]1CN2[C@@H](CC[C@@H](C)[C@@H]2c2ccc(Br)cc2)C(=O)O1

>  <composite z-score>
-0.0326

$$$$
